All values here come from ChEMBL document CHEMBL1147529.

quantity-kind: pIC50
// scale note: pIC50 = -log10(conc_M); give the bare number

Supply pIC50 measured with Adenosine kinase (Homo sapiens, UniProt P55263) for COCC(=O)Nc1cccc(-c2nc3c(N4CC5CCN(Cc6ccccc6)C5C4)ncnc3o2)c1 (stereo not given) .
Sequence (P55263 whole entry): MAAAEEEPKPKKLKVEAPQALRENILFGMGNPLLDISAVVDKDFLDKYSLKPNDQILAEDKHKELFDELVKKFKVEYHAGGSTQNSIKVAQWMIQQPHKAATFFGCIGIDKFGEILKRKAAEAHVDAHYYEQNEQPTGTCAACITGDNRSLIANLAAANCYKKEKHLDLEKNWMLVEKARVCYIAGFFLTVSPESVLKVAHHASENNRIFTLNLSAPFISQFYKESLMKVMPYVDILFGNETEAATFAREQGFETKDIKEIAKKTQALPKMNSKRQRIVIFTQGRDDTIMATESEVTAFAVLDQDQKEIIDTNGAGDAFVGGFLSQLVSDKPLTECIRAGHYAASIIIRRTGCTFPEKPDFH
7.40

Supply pIC50 measured with Adenosine kinase (Homo sapiens, UniProt P55263) for O=C(Nc1ccc(-c2nc3c(N4CC5CCN(Cc6ccccc6)C5C4)ncnc3o2)cc1)c1ccc(F)cc1 (stereo not given) .
6.89

Supply pIC50 measured with Adenosine kinase (Homo sapiens, UniProt P55263) for O=C(Nc1ccc(-c2nc3c(N4CC5CCN(Cc6ccccc6)C5C4)ncnc3o2)cc1)C1CC1 (stereo not given) .
7.52

Supply pIC50 measured with Adenosine kinase (Homo sapiens, UniProt P55263) for O=C(Nc1ccc(-c2nc3c(N4CC5CCN(Cc6ccccc6)C5C4)ncnc3o2)cc1)c1ccccc1 (stereo not given) .
7.15

Supply pIC50 measured with Adenosine kinase (Homo sapiens, UniProt P55263) for O=C(Cc1ccccc1)Nc1ccc(-c2nc3c(N4CC5CCN(Cc6ccccc6)C5C4)ncnc3o2)cc1 (stereo not given) .
7.15

Supply pIC50 measured with Adenosine kinase (Homo sapiens, UniProt P55263) for Nc1ncnc2nc(-c3ccc(N4CCOCC4)nc3)cc(-c3cccc(Br)c3)c12 .
8.00

Supply pIC50 measured with Adenosine kinase (Homo sapiens, UniProt P55263) for Clc1ccc(-c2nc3c(N4CC5CCN(Cc6ccccc6)C5C4)ncnc3o2)cn1 (stereo not given) .
7.15

Supply pIC50 measured with Adenosine kinase (Homo sapiens, UniProt P55263) for O=C(Cc1ccccc1)Nc1cccc(-c2nc3c(N4CC5CCN(Cc6ccccc6)C5C4)ncnc3o2)c1 (stereo not given) .
6.68

Supply pIC50 measured with Adenosine kinase (Homo sapiens, UniProt P55263) for c1ccc(CN2CCC3CN(c4ncnc5oc(-c6ccccc6)nc45)CC32)cc1 (stereo not given) .
6.70

Supply pIC50 measured with Adenosine kinase (Homo sapiens, UniProt P55263) for c1ccc(CN2CCC3CN(c4ncnc5oc(-c6cccnc6)nc45)CC32)cc1 (stereo not given) .
6.89

Supply pIC50 measured with Adenosine kinase (Homo sapiens, UniProt P55263) for O=C(Nc1cccc(-c2nc3c(N4CC5CCN(Cc6ccccc6)C5C4)ncnc3o2)c1)c1ccccc1 (stereo not given) .
7.05

Supply pIC50 measured with Adenosine kinase (Homo sapiens, UniProt P55263) for c1ccc(CCCNc2ncnc3oc(-c4ccccc4)nc23)cc1 .
6.64

###

# assayed-system: Adenosine kinase (Homo sapiens, UniProt P55263)
pIC50: −log10 of the molar value.
Record form. Attribute: pIC50. Fill in for each entry.

Note down pIC50 recorded for O=C(Nc1ccc(-c2nc3c(N4CC5CCN(Cc6ccccc6)C5C4)ncnc3o2)cc1)c1ccc(C(F)(F)F)cc1 (stereo not drawn)
< 5.00

Note down pIC50 recorded for COCCNc1ncnc2oc(-c3ccccc3)nc12
< 5.00

Note down pIC50 recorded for O=C(Nc1cccc(-c2nc3c(N4CC5CCN(Cc6ccccc6)C5C4)ncnc3o2)c1)c1ccc(C(F)(F)F)cc1 (stereo not drawn)
< 5.00
